molecular target: T1, apical domain of human CD71 (human, UniProt P02786 189-383, limits assumed); experiment: primary ELISA, RLU over HSA
T1 construct: domain: apical domain; Screen 4 panned on human apical domains, the ELISA text says only 'apical domain'
T1 sequence (P02786 189-383 limits assumed): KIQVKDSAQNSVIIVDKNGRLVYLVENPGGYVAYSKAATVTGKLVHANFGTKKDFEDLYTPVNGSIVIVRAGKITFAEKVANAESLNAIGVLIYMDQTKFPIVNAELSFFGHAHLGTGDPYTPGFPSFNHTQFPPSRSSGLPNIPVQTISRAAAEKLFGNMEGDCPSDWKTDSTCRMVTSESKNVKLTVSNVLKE
observed property: Apical domain:HSA
No unit in the answer, please; the number alone is enough.

Recorded Apical domain:HSA, per entry:
>  <binder>
CD71-binding FN3 domain of SEQ ID NO: 490 (designed binder) MLPAPKNLVVSRVTEDSARLSWTAPDAAFDSFFIGYLEPQPPGEAISLQVPGSERSYDLTGLKPGTEYNVTIQGVKGGFPSAPLVANFTT

>  <observed property>
Apical domain:HSA

>  <endpoint result>
281

$$$$
>  <binder>
CD71-binding FN3 domain of SEQ ID NO: 480 (designed binder) MLPAPKNLVVSRVTEDSARLSWTAPDAAFDSFEIDYAEDIREGEAIALVVPGSERSYDLTGLKPGTEYWVSIGGVKGGTWSRPLFAPFTT

>  <observed property>
Apical domain:HSA

>  <endpoint result>
181

$$$$
>  <binder>
CD71-binding FN3 domain of SEQ ID NO: 455 (designed binder) MLPAPKNLVVSRVTEDSARLSWTAPDAAFDSFTISYPEEAKHGEAIVLTVPGSERSYDLTGLKPGTEYGVPINGVKGGVSSLPLSAIFTT

>  <observed property>
Apical domain:HSA

>  <endpoint result>
171

$$$$
>  <binder>
CD71-binding FN3 domain of SEQ ID NO: 532 (designed binder) MLPAPKNLVVSRVTEDSARLSWTAPDAAFDSFDINYDELSGEGEAIALFVPGSERSYDLTGLKPGTEYWVSIGGVKGGRFSEPLYARFTT

>  <observed property>
Apical domain:HSA

>  <endpoint result>
197

$$$$
>  <binder>
CD71-binding FN3 domain of SEQ ID NO: 514 (designed binder) MLPAPKNLVVSRVTEDSARLSWTAPDAAFDSFFIGYLEPQPPGEAIHLFVPGSERSYDLTGLKPGTEYNVTIQGVKGGFPSEPLIANFTT

>  <observed property>
Apical domain:HSA

>  <endpoint result>
119

$$$$

Query: Fill in Apical domain:HSA for record CD71-binding FN3 domain of SEQ ID NO: 472 (designed binder) MLPAPKNLVVSRVTEDSARLSWTAPDAAFDSFFIGYLEPQPPGEAIELYVPGSERSYDLTGLKPGTEYNVTIQGVKGGFPSLPLVATFTT
Reply: 178

Query: Fill in Apical domain:HSA for record CD71-binding FN3 domain of SEQ ID NO: 496 (designed binder) MLPAPKNLVVSRVTEDSARLSWTAPDAAFDSFFIGYLEPQPPGEAIILWVPGSERSYDLTGLKPGTEYNVTIQGVKGGFPSVPLIAQFTT
Reply: 47

Query: Fill in Apical domain:HSA for record CD71-binding FN3 domain of SEQ ID NO: 535 (designed binder) MLPAPKNLVVSRVTEDSARLSWTAPDAAFDSFFIGYLEPQPPGEAIHLQVPGSERSYDLTGLKPGTEYNVTIQGVKGGFPSDPLVAKFTT
Reply: 285
